Biological target: T1, human interleukin 13 receptor subunit alpha 2 (IL-13RA2) (human, UniProt Q14627 27-380)
T1 construct: whole, on cells; also called IL-13Rα2; CD213A2
T1 sequence (looked up): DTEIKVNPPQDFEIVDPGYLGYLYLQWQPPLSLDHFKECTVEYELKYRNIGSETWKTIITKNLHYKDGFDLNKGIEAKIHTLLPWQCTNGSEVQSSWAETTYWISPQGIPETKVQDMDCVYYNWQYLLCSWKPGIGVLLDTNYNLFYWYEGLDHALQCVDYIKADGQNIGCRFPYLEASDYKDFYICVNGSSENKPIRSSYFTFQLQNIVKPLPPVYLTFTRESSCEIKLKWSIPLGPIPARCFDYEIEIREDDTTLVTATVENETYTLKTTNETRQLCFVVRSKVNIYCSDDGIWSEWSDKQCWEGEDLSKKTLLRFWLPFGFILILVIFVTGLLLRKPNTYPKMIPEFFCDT
Assay: FACS on A375 cells
Top (MFI) listing for selected binders.

Binder	Reading unit	Top (MFI)
57F8H3F1 H2L3 hIgG1 (antibody, V domains shown, humanized, hIgG1) VH: QVQLVQSGAEVVKPGASVKVSCKASGYTFTNYWMNWVRQAPGQGLEWIGRIDAYETETHYNQKFRDRVTMTVDTSTSTVYMELSSLRSEDTAVYYCARGYGHYYGVDYWGQGTLVTVSS VL: DIQLTQSPSSLSASVGDRVTITCRASENVGNFGISFVNWFQQKPGKAPKLLIYAASNLGSGDPARFSGSGSGTDFTLTISSLQPEDFATYFCQQSKGVPWTFGGGTKVEIK	MFI	7010
72B4H4 H2L3 hIgG1 (antibody, V domains shown, humanized, hIgG1) VH: QVQLVQSGAEVVKPGASVKVSCKASGYTFTNYWMNWVRQAPGQGLEWIGRIDAYAGETHYNQKFKDRVTMTVDTSTSTVYMELSSLRSEDTAVYYCARGYGDAYGMDHWGQGTLVTVSS VL: DIQLTQSPSSLSASVGDRVTITCRASESVDNYGISFMNWFQQKPGKAPKLLIYAASRQGSGDPARFSGSGSGTDFTLTISSLQPEDFATYFCQQSKEVPWTFGGGTKVEIK	MFI	8420
72B4H4 H3L3 hIgG1 (antibody, V domains shown, humanized, hIgG1) VH: QVQLVQSGAEVVKPGASVKLSCKASGYTFTNYWMNWVKQAPGQGLEWIGRIDAYAGETHYNQKFKDRATLTVDKSTSTVYMELSSLRSEDTAVYYCARGYGDAYGMDHWGQGTLVTVSS VL: DIQLTQSPSSLSASVGDRVTITCRASESVDNYGISFMNWFQQKPGKAPKLLIYAASRQGSGDPARFSGSGSGTDFTLTISSLQPEDFATYFCQQSKEVPWTFGGGTKVEIK	MFI	8780
